Consider the following compounds; for each one, report its viability at 28.5 h, 10 µM.
assay: in vitro; conditions: human, hela cells, % viability
# number only, unit % dropped from output

Reported viability at 28.5 h, 10 µM, compound Cc1cn(S(=O)(=O)N(C)C)nc1-c1ccccc1 [CBK005210] : ____
89.9

Reported viability at 28.5 h, 10 µM, compound Cc1ccc(Cn2c(OCCN(C)C)nc3c2c(=O)n(C)c(=O)n3C)cc1 [CBK134241] : ____
89.3

Reported viability at 28.5 h, 10 µM, compound COc1ccc([C@@]23CC[C@@H](NC(=S)NC(C)=O)C[C@@H]2N(Cc2ccccc2)CC3)cc1OC [CBK025503T] : ____
90.2

Reported viability at 28.5 h, 10 µM, compound COc1ccc(CCc2nc(C(F)(F)F)cc(=O)[nH]2)cc1 [CBK003679] : ____
87.3

Reported viability at 28.5 h, 10 µM, compound CCCCCCC(C)n1c(-c2nonc2N)nc2ccccc21 (stereo not shown) [CBK062648] : ____
94.2

Reported viability at 28.5 h, 10 µM, compound Cc1cc2c(s1)c1cnn(CC(=O)NCC3CC3)c(=O)c1n2C [CBK284222] : ____
91.2

Reported viability at 28.5 h, 10 µM, compound CC(C)c1ccc2oc(-c3ccc(NC(=S)NC(=O)c4cncc(Br)c4)cc3)nc2c1 [CBK264913] : ____
106

Reported viability at 28.5 h, 10 µM, compound Cc1noc2nc(-c3cccnc3)cc(C(=O)O)c12 [CBK288207] : ____
92.4

Reported viability at 28.5 h, 10 µM, compound Cc1ccc(S(=O)(=O)N(Cc2c(F)cccc2F)C2CCNCC2)cc1 [CBK163927T] : ____
89.9

Reported viability at 28.5 h, 10 µM, compound CN(C)C(=O)Cc1ccc(-c2ccccc2)cc1 [CBK012162] : ____
94.2

====

experiment: in vitro; settings: human, hela cells, % viability
Consider the following compounds; for each one, report its viability at 28.5 h, 10 µM.
# number only, unit % dropped from output

Reported viability at 28.5 h, 10 µM, compound COc1ccc(Oc2nccc(N3CCCN(CCCO)CC3)n2)cc1OC : ____
93.5

Reported viability at 28.5 h, 10 µM, compound Cc1ccc(CS(=O)(=O)NCCn2nc(C)c(C)c2C)cc1 : ____
91.2

Reported viability at 28.5 h, 10 µM, compound Nc1ncc(-c2ccccc2CO)nc1NC1CCOCC1 : ____
98.7

Reported viability at 28.5 h, 10 µM, compound FC(F)(F)c1ccc(OCCNc2ccccc2)nc1 : ____
101

Reported viability at 28.5 h, 10 µM, compound CCCNC(=O)Cn1nc(C)n2c(cc3sccc32)c1=O : ____
102

Reported viability at 28.5 h, 10 µM, compound O=C(NCc1cccnc1)c1ccc(N2CCN(C(=O)c3ccccc3C(F)(F)F)CC2)nn1 : ____
72.3

Reported viability at 28.5 h, 10 µM, compound COc1ccc(-c2nc(NC(=O)COc3ccc(C)c4c3CCC4)cnc2-c2ccc(F)cc2)cc1 : ____
88.7

Reported viability at 28.5 h, 10 µM, compound Cc1ccc(S(=O)(=O)N(C)CC(=O)OCC(=O)c2ccccc2)cc1 : ____
95.1

Reported viability at 28.5 h, 10 µM, compound CC(C)Cn1c(=O)c2c(nc3n2CCS3)n(C)c1=O : ____
98.1

Reported viability at 28.5 h, 10 µM, compound CNCC1CCCN1S(=O)(=O)c1ccc(OCc2ncnn2C)cc1 (stereo not shown) : ____
90

====

assay: in vitro; details: human, hela cells, % viability
Consider the following compounds; for each one, report its viability at 28.5 h, 10 µM.
# number only, unit % dropped from output

Reported viability at 28.5 h, 10 µM, compound N#CCCn1cc(C(=O)Oc2ccc(-c3ccccc3)cc2)c(-c2cccc([N+](=O)[O-])c2)n1 : ____
105

Reported viability at 28.5 h, 10 µM, compound Nc1ncc(-c2cccc3ccccc23)nc1NC1CCCCC1 : ____
94

Reported viability at 28.5 h, 10 µM, compound COc1ccc(Nc2ncnc3c2c(C)c(C)n3CCO)cc1 : ____
102

Reported viability at 28.5 h, 10 µM, compound CN1CCOc2cc(S(=O)(=O)Nc3cccnc3N3CCOCC3)ccc21 : ____
108

Reported viability at 28.5 h, 10 µM, compound COc1ccc2[nH]c3c(c2c1)CCNC31CCN(CC(=O)C(C)(C)C)CC1 : ____
98.1

====

assay: in vitro; conditions: human, hela cells, % viability
property: viability at 28.5 h, 10 µM (%)
# number only, unit % dropped from output

Reported viability at 28.5 h, 10 µM, compound N#Cc1cnn2c(C(F)(F)F)cc(C(F)(F)F)nc12 [CBK014064] : ____
93.5

Reported viability at 28.5 h, 10 µM, compound CC(=O)Nc1ccc(Cc2nc(C3CC3)no2)cc1 [CBK305197] : ____
92.1

Reported viability at 28.5 h, 10 µM, compound CCn1cncc1CN(Cc1ccc(F)cc1)CC1CCCO1 (stereo not shown) [CBK283036] : ____
98

Reported viability at 28.5 h, 10 µM, compound COc1ccc(CCc2nc(C)cc(CN(C)C)c2O)cc1 [CBK278313C] : ____
106

Reported viability at 28.5 h, 10 µM, compound CS(=O)(=O)NCC1(c2ccccc2)CCN(S(=O)(=O)c2c(Cl)cccc2Cl)CC1 [CBK051633] : ____
89.9

Reported viability at 28.5 h, 10 µM, compound COc1ccc(S(=O)(=O)N(C)CC(=O)Nc2ccc(C(N)=O)cc2)cc1C [CBK267278] : ____
88

Reported viability at 28.5 h, 10 µM, compound Cc1ccc(-c2cnc3ccccc3n2)cc1NC(=O)c1ccccc1S(=O)(=O)c1ccc([N+](=O)[O-])cc1 [CBK267690] : ____
110

Reported viability at 28.5 h, 10 µM, compound CC(C)c1ccc(S(=O)(=O)n2ccn(-c3cccc(C(F)(F)F)c3)c2=O)cc1 [CBK106587] : ____
93.8

Reported viability at 28.5 h, 10 µM, compound CC(=O)Nc1ccc([C@@H](O)[C@H]2COCC(=O)N2C)cc1 [CBK289059] : ____
97.7

Reported viability at 28.5 h, 10 µM, compound O=C1CN(C(=O)c2cccc(Cl)c2)c2ccccc2N1 [CBK017844] : ____
101

Reported viability at 28.5 h, 10 µM, compound FC(F)(F)c1ccc(N2CCNCC2)nc1OCc1ccc2c(c1)OCCO2 [CBK003994A] : ____
113

Reported viability at 28.5 h, 10 µM, compound CCCCCCc1ccc(NS(=O)(=O)c2cc3c(NCCN(C)C)nccc3s2)cc1 [CBK038253C] : ____
100

Reported viability at 28.5 h, 10 µM, compound OC(COc1cccc2c1CCCC2)CN1CCC(O)(c2ccc(Cl)c(C(F)(F)F)c2)CC1 (stereo not shown) [CBK003581] : ____
102

Reported viability at 28.5 h, 10 µM, compound COc1cc(Cl)c(C)cc1NC(=O)c1ncn(-c2ccccc2)n1 [CBK269456] : ____
101

Reported viability at 28.5 h, 10 µM, compound O=C(CS(=O)(=O)c1ccccc1)Nc1cnc(-c2ccc(F)cc2)c(-c2ccoc2)n1 [CBK037168] : ____
107

Reported viability at 28.5 h, 10 µM, compound CCN1CCN(C(=O)CN(Cc2ccc(Cl)cc2)S(C)(=O)=O)CC1 [CBK269263] : ____
82.8

Reported viability at 28.5 h, 10 µM, compound Cc1ccc(N(Cc2ccco2)C(=O)c2cccc(S(=O)(=O)N3CCOCC3)c2)cc1 [CBK265857] : ____
96.4

Reported viability at 28.5 h, 10 µM, compound Cc1ccc2c(C(=O)Nc3sc4c(c3C(N)=O)CCCCC4)cc(-c3ccccn3)nc2c1C [CBK267749] : ____
94

Reported viability at 28.5 h, 10 µM, compound Cc1cc(C)n2c(SCC(=O)c3ccccc3)nnc2n1 [CBK265378] : ____
84.3

Reported viability at 28.5 h, 10 µM, compound COCCn1cnnc1CN(C)C(=O)NCc1cc2ccccc2s1 [CBK306911] : ____
98.6

Reported viability at 28.5 h, 10 µM, compound CCN1CC2(CCN(CC3CC3)CC2)c2ccccc21 [CBK136987] : ____
92.6

Reported viability at 28.5 h, 10 µM, compound CC(=O)N(C)c1nc(-c2cccc(N(C)C)c2)ccc1C(=O)NCc1cccnc1 [CBK076639] : ____
101

Reported viability at 28.5 h, 10 µM, compound Cc1ccc(-c2noc(CN3CCN(C(c4ccccc4)c4ccccc4)CC3)n2)cc1 [CBK266425] : ____
96.5

Reported viability at 28.5 h, 10 µM, compound Cc1ccnc(N2CCOC3(CCCC3)C2)n1 [CBK304794] : ____
93.1

Reported viability at 28.5 h, 10 µM, compound COc1ccc(-n2ncc3c(N4CCN(C)CC4)ncnc32)cc1 [CBK265848] : ____
89

Reported viability at 28.5 h, 10 µM, compound O=C(C1CCCO1)N1CCCC(c2cc3cccnc3[nH]2)C1 (stereo not shown) [CBK284978] : ____
101

Reported viability at 28.5 h, 10 µM, compound COCC(=O)Nc1ccc(N2CCCC2=O)c(Cl)c1 [CBK256871] : ____
106

Reported viability at 28.5 h, 10 µM, compound Nc1cc(=O)[nH]c(SCC(=O)N2CCc3ccccc32)n1 [CBK307424] : ____
94.4

Reported viability at 28.5 h, 10 µM, compound Oc1cc(C(F)(F)F)nc(NCc2ccc(-c3ccccc3)cc2)n1 [CBK002395] : ____
105

Reported viability at 28.5 h, 10 µM, compound Cc1ccc(-c2csc(NC(=O)c3ccc(S(=O)(=O)N4CCOCC4)cc3)n2)cc1 [CBK094024] : ____
93.4

Reported viability at 28.5 h, 10 µM, compound COc1ccc(S(=O)(=O)Nc2nc(C)c(C(=O)Nc3ccc(F)cc3)s2)cc1OC [CBK050538] : ____
103

Reported viability at 28.5 h, 10 µM, compound O=C(NCCc1cccs1)Nc1cc(C(F)(F)F)cc(C(F)(F)F)c1 [CBK043718] : ____
91.1

Reported viability at 28.5 h, 10 µM, compound CCN1CC(C(=O)NCc2ccc(CN3CCCCC3)cc2)CC1=O (stereo not shown) [CBK281400] : ____
87.3

Reported viability at 28.5 h, 10 µM, compound CCOC(=O)c1c(NC(=O)C2C3CCC(C3=C(C)C)C2C(=O)O)sc2c1CCCCC2 (stereo not shown) [CBK265439] : ____
106

Reported viability at 28.5 h, 10 µM, compound COCCN(Cc1cnn(C)c1)C(=O)Cc1ccc(Cl)cc1 [CBK307407] : ____
97

Reported viability at 28.5 h, 10 µM, compound COc1ccc(-c2cccc(Nc3cc(OC)c(OC)c(OC)c3)n2)cc1OC [CBK037634] : ____
55.7

Reported viability at 28.5 h, 10 µM, compound O=C(NNC(=O)c1ccc2c(c1)C(=O)N(Cc1ccco1)C2=O)c1cccnc1 [CBK267403] : ____
91

Attribution: paper PMC12040169
